- measurement_notes: Intrinsic clearance with human liver microsomes
- Format: in vitro ADME
- assay_setup: human liver microsomes 1 mg protein/ml, NADPH, pH 7.4
readout_kind: CLint scaled at 1 µM

QUERY: Report measured CLint scaled at 1 µM; entry is "Cc1c(CN2CCC(NC(=O)COc3nc(N)c(C(=O)O)cc3F)CC2)ccc(Cl)c1Cl"
RESULT: < 3 mL/min/kg
